experiment: Acute oral toxicity test in rats; settings: rat, in vivo, single oral dose in 0.5% methyl cellulose, read-out: lethal dose (LD50) for oral administration
For each entry below, report its LD50 value.

Worked examples, 2 compounds total:
>>> df
                                   compound   assay_value
0  COC(OC)[C@@]1(C)Oc2ccc([N+](=O)[O-])cc2[C@H](NC(=NC#N)Nc2ccccc2Cl)[C@H]1O [Example 32]  > 1000 mg/kg
1  COC(OC)[C@]1(C)Oc2ccc([N+](=O)[O-])cc2[C@H](NC(=NC#N)Nc2ccc([N+](=O)[O-])cc2)[C@H]1O [Example 5]  > 1000 mg/kg

Data point: COC(OC)[C@@]1(C)Oc2ccc([N+](=O)[O-])cc2[C@@H](NC(=NC#N)Nc2cccc(C(F)(F)F)c2)[C@@H]1O [Example 15] ; LD50 = > 1000 mg/kg

###

system: rat aorta; test: Vasodilation effects on isolated blood vessels of rats (methoxamine-constricted aortic rings); format: cell-based; details: isolated rat aorta constricted with methoxamine (3 uM); read-out: Vasodilation Activity (in Vitro, rat aorta) (IC50)
attribute_measured: log10(IC50) (log10 of the value in µM)
A difference of one corresponds to tenfold IC50; all values are log10 with IC50 in µM.

>>> print(df.to_string())
                                   compound  assay_value
0  COC(OC)[C@@]1(C)Oc2ccc([N+](=O)[O-])cc2[C@H](NC(=NC#N)NCc2ccccc2)[C@H]1O         0.99
1  COC(OC)[C@@]1(C)Oc2ccc([N+](=O)[O-])cc2[C@@H](NC(=NC#N)Nc2cccc(C(F)(F)F)c2)[C@@H]1O         1.15
2  CC1(C)Oc2ccc(C#N)cc2[C@@H](NC(=NC#N)Nc2ccc(Cl)cc2)[C@@H]1O [BMS-180448, reference compound]         0.14
3  CC1(C)Oc2ccc(C#N)cc2C(N2CCCC2=O)C1O (stereo not drawn) [Cromakalim, reference compound]        -1.17
4  COC(OC)[C@@]1(C)Oc2ccc([N+](=O)[O-])cc2[C@H](NC(=NC#N)Nc2ccccc2Cl)[C@H]1O         0.55

Now look at this one.
What the record says about COC(OC)[C@@]1(C)Oc2ccc([N+](=O)[O-])cc2[C@@H](NC(=NC#N)NCc2ccccc2)[C@@H]1OC(C)=O : log10(IC50) is 1.39

###

tested on: HUVEC; experiment: Inhibition of HUVEC tube formation on Matrigel; format: cell-based, Human; design: key: -: no effect; +/-: week effect; +: moderate effect; ++: strong effect; settings: 10 uM
attribute_measured: Inhibitory Effects on Tube Formation

Would you please look over these solved cases?
>>> df
                               smiles_entry  assay_value
0  COc1ccc(NC(=NC#N)N[C@H]2c3cc([N+](=O)[O-])ccc3O[C@](C)(C(OC)OC)[C@@H]2O)cc1          +/-
1  COC(OC)[C@@]1(C)Oc2ccc([N+](=O)[O-])cc2[C@@H](NC(=NC#N)NCc2cccc([N+](=O)[O-])c2)[C@@H]1O          +/-
2  COC(OC)[C@@]1(C)Oc2ccc(N)cc2[C@@H](NC(=NC#N)NCc2ccccc2)[C@@H]1O            +
3  COC(OC)[C@]1(C)Oc2ccc([N+](=O)[O-])cc2[C@@H](NC(=NC#N)Nc2ccc(Cl)cc2)[C@@H]1O            +

Now turn to the next molecule.
Query COC(OC)[C@@]1(C)Oc2ccc([N+](=O)[O-])cc2[C@H](NC(=NC#N)Nc2ccc(Cl)cc2)[C@H]1O yields Inhibitory Effects on Tube Formation of +
